Where these numbers come from: ChEMBL document CHEMBL6121021

target: UniProt P11388
Assay readout: pIC50
Remember the convention: pIC50 equals -log10 of concentration in molar.

Prompt: Which measured pIC50 belongs to `COc1ccc(-c2ccc3cc(OCCCCCC(=O)NO)ccc3n2)cc1` , tested on UniProt P11388?
Response: 4.17

---

biological target: UniProtKB Q13547; experiment: Inhibition of HDAC1 (unknown origin)
Overview of recorded pIC50 for various compounds
Remember the convention: pIC50 equals -log10 of concentration in molar.

Example entries and their recorded answers appear below.
{"columns": ["Compound", "Assay result"],
 "data": [
  ["CC[C@@]1(O)C(=O)OCc2c1cc1n(c2=O)Cc2c-1nc1ccccc1c2/C=N\\OCCCCCCC(=O)NO", 8.28],
  ["CN1c2ccccc2C(=O)N2[C@H](C(=O)Nc3ccc(C(=O)Nc4ccccc4N)cc3)Cc3c([nH]c4ccccc34)[C@@H]12", 9.80],
  ["O=C(CCCCCn1cc(-c2ccc(Nc3c4ccccc4nc4ccccc34)cc2)nn1)NO", 8.41]
]}

Now, please, on to the next compound.
Prompt: Which measured pIC50 belongs to CN1c2ccc(NCc3ccc(-c4noc(CC(=O)NO)n4)cc3)cc2C(O)N2CCc3c([nH]c4ccc(O)cc34)C12 (centres undefined) , tested on UniProtKB Q13547?
Response: 7.62

---

target: Protein deacetylase HDAC6 (Homo sapiens, UniProt Q9UBN7); experiment: Inhibition of HDAC6 (unknown origin)
Sequence (Q9UBN7 whole entry): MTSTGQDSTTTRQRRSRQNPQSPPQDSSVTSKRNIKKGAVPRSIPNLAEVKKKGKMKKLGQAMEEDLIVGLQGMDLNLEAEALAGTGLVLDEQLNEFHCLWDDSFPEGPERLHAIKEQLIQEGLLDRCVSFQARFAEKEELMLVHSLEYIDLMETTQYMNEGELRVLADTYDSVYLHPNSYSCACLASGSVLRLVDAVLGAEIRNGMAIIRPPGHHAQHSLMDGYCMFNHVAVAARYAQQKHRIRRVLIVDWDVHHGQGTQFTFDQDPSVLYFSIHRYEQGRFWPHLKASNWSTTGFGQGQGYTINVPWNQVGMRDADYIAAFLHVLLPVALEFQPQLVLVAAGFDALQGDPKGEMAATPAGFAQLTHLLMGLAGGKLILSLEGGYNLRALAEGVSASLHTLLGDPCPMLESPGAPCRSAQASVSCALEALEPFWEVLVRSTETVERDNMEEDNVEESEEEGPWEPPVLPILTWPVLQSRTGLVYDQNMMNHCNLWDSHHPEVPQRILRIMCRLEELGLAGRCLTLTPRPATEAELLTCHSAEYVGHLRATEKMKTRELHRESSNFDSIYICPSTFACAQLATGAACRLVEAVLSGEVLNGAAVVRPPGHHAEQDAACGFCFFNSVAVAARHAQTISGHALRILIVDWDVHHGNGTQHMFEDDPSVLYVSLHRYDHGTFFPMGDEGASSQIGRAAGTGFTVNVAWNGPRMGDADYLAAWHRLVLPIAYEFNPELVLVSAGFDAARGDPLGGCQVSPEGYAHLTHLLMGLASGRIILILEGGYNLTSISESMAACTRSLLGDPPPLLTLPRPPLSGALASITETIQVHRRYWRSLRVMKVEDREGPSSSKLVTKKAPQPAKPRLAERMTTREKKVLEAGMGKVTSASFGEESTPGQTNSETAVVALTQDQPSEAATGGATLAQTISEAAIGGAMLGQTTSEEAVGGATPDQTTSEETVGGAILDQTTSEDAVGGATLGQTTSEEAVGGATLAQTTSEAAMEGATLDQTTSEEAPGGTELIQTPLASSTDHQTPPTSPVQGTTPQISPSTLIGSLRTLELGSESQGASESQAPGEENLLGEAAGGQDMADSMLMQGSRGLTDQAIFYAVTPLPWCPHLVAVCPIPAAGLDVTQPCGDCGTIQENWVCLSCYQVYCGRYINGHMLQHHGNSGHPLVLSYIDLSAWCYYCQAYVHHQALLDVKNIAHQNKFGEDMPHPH
Assay readout: IC50 (nM)
Provide only the numeric value, understood in nM.

Example entries and their recorded answers appear below.
{"columns": ["Compound", "IC50, nM"],
 "data": [
  ["CC[C@@]1(O)C(=O)OCc2c1cc1n(c2=O)Cc2c-1nc1ccccc1c2/C=N\\OCCCCCCC(=O)NO", 5.22],
  ["O=C(CCCCCn1cc(-c2ccc(Nc3c4ccccc4nc4ccccc34)cc2)nn1)NO", 2.9]
]}

Now, please, on to the next compound.
Prompt: Can you share its IC50? I mean this compound: CN1c2ccc(NCc3ccc(-c4noc(CC(=O)NO)n4)cc3)cc2C(O)N2CCc3c([nH]c4ccc(O)cc34)C12 (centres undefined)
Response: 13

---

target: Cytochrome P450 2C19 (Homo sapiens, UniProt P33261)
Assay readout: IC50
The answer consists of two parts: a number and, after it, its unit.

Prompt: Which measured IC50 belongs to `COc1ccc(-c2ccc3cc(OCCCCCC(=O)NO)ccc3n2)cc1` , tested on Cytochrome P450 2C19 (Homo sapiens, UniProt P33261)?
Response: 18 µM

---

target: Histone deacetylase 11 (Homo sapiens, UniProt Q96DB2); test: Inhibition of recombinant human HDAC11 by fluorogenic assay
Sequence (Q96DB2 whole entry): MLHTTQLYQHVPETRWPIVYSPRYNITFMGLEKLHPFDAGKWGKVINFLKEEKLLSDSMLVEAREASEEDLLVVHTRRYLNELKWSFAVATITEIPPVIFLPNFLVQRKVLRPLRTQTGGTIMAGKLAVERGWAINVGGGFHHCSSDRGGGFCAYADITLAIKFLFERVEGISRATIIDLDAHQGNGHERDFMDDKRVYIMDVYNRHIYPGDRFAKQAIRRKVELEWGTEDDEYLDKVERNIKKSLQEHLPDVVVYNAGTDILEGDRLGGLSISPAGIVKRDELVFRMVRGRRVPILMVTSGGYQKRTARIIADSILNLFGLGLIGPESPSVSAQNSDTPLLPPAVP
Assay readout: IC50 (nM)
Provide only the numeric value, understood in nM.

Prompt: Which measured IC50 belongs to `COc1ccc(-c2ccc3cc(OCCCCCC(=O)NO)ccc3n2)cc1` , tested on Histone deacetylase 11 (Homo sapiens, UniProt Q96DB2)?
Response: 58.1

---

biological target: Histone deacetylase 8 (Homo sapiens, UniProt Q9BY41); test: Inhibition of HDAC8 (unknown origin)
Assay readout: IC50

Prompt: Can you share its IC50? I mean this compound: `CN1c2ccccc2C(=O)N2[C@H](C(=O)Nc3ccc(C(=O)Nc4ccccc4N)cc3)Cc3c([nH]c4ccccc34)[C@@H]12`
Response: > 100 nM

---

experiment: Metabolic stability in mouse hepatocytes assessed as hepatic clearance at 2 uM measured upto 120 min by LC-MS/MS analysis; type: ADME, cell-based, Hepatocyte
Assay readout: CLhep predicted at 2 µM (mL/min/kg)
Provide only the numeric value, understood in mL/min/kg.

Prompt: Can you share its CLhep predicted at 2 µM? I mean this compound: `COc1ccc(-c2ccc3cc(OCCCCCC(=O)NO)ccc3n2)cc1`
Response: 65.9

---

biological target: Histone deacetylase 3/Nuclear receptor corepressor 2 (HDAC3/NCoR2) (Homo sapiens, UniProt O15379); assay: Inhibition of His/GST-tagged recombinant human HDAC3/NcoR2 by fluorogenic assay
Sequence (O15379 whole entry): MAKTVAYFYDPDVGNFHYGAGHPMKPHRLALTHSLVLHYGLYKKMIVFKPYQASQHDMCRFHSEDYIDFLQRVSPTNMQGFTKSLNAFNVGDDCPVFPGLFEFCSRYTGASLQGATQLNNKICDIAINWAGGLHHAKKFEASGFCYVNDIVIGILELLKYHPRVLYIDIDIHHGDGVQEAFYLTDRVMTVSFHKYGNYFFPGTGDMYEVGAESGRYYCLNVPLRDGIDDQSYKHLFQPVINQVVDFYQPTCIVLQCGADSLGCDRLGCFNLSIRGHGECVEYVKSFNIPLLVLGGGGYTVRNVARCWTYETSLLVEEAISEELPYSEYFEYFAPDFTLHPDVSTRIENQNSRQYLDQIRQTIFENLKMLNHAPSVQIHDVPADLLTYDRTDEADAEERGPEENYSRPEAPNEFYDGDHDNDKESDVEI
Sequence (Q9Y618 whole entry, further chain): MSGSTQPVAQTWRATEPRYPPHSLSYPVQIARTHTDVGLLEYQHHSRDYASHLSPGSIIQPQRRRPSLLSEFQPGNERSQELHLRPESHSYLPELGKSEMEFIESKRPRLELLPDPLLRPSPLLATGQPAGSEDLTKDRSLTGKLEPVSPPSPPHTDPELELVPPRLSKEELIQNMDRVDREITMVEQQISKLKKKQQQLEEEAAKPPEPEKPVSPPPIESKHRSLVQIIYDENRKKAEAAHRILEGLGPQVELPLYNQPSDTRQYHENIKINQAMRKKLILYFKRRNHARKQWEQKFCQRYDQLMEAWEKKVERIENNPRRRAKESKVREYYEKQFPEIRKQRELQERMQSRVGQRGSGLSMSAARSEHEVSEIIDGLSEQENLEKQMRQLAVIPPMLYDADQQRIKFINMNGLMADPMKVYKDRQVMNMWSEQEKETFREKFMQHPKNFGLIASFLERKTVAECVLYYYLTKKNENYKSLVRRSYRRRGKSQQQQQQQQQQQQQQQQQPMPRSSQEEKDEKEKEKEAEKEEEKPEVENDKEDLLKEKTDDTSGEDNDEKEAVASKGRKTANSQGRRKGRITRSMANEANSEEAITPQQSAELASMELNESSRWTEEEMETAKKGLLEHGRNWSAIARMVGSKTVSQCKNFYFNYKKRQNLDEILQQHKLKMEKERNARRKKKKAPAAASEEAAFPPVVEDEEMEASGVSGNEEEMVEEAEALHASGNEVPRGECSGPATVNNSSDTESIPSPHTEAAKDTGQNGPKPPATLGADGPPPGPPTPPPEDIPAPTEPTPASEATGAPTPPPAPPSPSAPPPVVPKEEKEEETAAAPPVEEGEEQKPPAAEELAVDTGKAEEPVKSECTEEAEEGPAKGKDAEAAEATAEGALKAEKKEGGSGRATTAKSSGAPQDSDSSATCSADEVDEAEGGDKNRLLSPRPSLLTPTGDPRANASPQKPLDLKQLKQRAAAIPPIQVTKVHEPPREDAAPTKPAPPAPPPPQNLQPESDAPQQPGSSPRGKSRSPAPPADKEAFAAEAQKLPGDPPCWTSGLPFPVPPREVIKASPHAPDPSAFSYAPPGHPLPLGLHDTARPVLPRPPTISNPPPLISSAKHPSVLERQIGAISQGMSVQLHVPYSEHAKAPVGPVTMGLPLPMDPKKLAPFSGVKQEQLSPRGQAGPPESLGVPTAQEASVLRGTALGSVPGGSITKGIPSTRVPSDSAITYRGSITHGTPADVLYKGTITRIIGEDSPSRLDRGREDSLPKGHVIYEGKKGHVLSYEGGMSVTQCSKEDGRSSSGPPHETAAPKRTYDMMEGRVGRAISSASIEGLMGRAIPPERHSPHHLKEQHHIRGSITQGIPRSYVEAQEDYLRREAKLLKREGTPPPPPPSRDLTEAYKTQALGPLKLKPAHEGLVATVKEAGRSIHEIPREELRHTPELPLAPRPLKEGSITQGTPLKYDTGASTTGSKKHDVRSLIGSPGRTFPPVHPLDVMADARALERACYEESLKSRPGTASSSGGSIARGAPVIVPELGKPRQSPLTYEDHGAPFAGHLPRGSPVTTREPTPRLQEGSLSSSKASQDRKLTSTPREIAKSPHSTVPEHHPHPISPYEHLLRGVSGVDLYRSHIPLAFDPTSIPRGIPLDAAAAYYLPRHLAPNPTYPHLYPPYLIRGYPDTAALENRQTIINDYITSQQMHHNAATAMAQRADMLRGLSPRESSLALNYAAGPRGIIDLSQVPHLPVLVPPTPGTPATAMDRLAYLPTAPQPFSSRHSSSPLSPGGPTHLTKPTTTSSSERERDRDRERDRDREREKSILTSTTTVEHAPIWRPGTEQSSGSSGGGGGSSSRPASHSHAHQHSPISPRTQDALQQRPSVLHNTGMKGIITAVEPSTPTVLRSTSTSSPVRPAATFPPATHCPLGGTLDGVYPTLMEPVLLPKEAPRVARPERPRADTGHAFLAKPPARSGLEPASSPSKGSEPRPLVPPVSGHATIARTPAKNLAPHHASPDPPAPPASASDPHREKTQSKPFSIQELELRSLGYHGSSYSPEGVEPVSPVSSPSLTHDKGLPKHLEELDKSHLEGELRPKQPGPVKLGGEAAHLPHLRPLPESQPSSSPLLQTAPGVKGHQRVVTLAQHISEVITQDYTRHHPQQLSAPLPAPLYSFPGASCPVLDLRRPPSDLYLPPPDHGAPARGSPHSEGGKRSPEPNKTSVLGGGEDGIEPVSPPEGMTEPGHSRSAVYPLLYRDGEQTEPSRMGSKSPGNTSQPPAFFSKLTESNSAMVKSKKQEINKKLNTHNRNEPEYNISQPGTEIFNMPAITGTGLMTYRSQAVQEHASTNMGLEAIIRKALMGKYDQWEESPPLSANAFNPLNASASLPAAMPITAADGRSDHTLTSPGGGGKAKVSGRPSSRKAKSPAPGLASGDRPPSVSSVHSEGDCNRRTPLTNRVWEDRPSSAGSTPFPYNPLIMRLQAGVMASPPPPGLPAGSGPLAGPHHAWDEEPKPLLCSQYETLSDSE
Assay readout: IC50 (nM)
Provide only the numeric value, understood in nM.

Prompt: Can you share its IC50? I mean this molecule: `COc1ccc(-c2ccc3cc(OCCCCCC(=O)NO)ccc3n2)cc1`
Response: 88.3

---

assay: Metabolic stability in human hepatocytes assessed as hepatic clearance at 2 uM measured upto 120 min by LC-MS/MS analysis; assay type: ADME, cell-based, Hepatocyte
Assay readout: CLhep predicted at 2 µM
The answer consists of two parts: a number and, after it, its unit.

Prompt: Can you share its CLhep predicted at 2 µM? I mean this compound: `COc1ccc(-c2ccc3cc(OCCCCCC(=O)NO)ccc3n2)cc1`
Response: 14 mL/min/kg

---

biological target: Histone deacetylase 1 (Homo sapiens, UniProt Q13547); experiment: Inhibition of HDAC1 extracted from human A549 nucleus incubated for 1 hr by fluorometric assay; type: cell-free
Sequence (Q13547 whole entry): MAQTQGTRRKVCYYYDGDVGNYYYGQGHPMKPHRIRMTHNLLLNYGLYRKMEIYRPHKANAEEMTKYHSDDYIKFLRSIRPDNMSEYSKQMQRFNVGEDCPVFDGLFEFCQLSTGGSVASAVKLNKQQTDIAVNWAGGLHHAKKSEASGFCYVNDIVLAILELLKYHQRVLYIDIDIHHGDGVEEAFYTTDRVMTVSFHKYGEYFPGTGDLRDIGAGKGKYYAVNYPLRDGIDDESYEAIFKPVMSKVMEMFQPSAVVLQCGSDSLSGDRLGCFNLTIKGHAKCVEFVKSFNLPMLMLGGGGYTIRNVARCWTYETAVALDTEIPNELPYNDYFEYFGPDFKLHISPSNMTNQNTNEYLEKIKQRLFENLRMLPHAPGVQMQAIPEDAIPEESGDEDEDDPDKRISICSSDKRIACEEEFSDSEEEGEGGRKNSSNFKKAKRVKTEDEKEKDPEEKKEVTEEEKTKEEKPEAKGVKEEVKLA
Strictly below 30 nM in IC50: 1 (yes). Otherwise: 0 (no).

Example cases with answers are listed next.
{"columns": ["Record smiles", "Group"],
 "data": [
  ["COc1ccc(-c2ccc3cc(OCCCCCCC(=O)NO)ccc3n2)cc1", "1 (yes)"],
  ["COc1cc(-c2ccc3cc(OCCCCCCC(=O)NO)ccc3n2)cc(OC)c1OC", "0 (no)"],
  ["COc1cc(-c2ccc3cc(OCCCCCC(=O)NO)ccc3n2)cc(OC)c1OC", "0 (no)"],
  ["COc1ccc(-c2ccc3ccc(OCCCCCCC(=O)NO)cc3n2)cc1I", "0 (no)"],
  ["COc1ccc(-c2ccc3cc(OCCCCCC(=O)NO)ccc3n2)cc1", "1 (yes)"],
  ["COc1ccc(-c2ccc3ccc(OCCCCCC(=O)NO)cc3n2)cc1I", "0 (no)"],
  ["O=C(CCCCCCOc1ccc2nc(-c3ccccc3)ccc2c1)NO", "0 (no)"]
]}

Would you kindly look at the next entry?
Prompt: Record `O=C(CCCCCCOc1ccc(-c2ccc3ccccc3n2)cc1)NO` : is its IC50 strictly below 30 nM?
Response: 0 (no)

---

target: Histone deacetylase 1 (Homo sapiens, UniProt Q13547); experiment: Inhibition of HDAC1 (unknown origin) incubated for 48 hrs
Assay readout: pIC50
Remember the convention: pIC50 equals -log10 of concentration in molar.

Prompt: Which measured pIC50 belongs to `O=C(CCCCCOc1ccc(-c2nc3ccccc3c3cc(-c4ccccc4)nn23)cc1)NO` , tested on Histone deacetylase 1 (Homo sapiens, UniProt Q13547)?
Response: 6.10

---

target: Histone deacetylase 4 (Homo sapiens, UniProt P56524); experiment: Inhibition of HDAC4 (unknown origin)
Assay readout: IC50

Prompt: Can you share its IC50? I mean this compound: `CN1c2ccccc2C(=O)N2[C@H](C(=O)Nc3ccc(C(=O)Nc4ccccc4N)cc3)Cc3c([nH]c4ccccc34)[C@@H]12`
Response: > 100 nM

---

Molecular target: Polyamine deacetylase HDAC10 (Homo sapiens)
Sequence (Q969S8 whole entry): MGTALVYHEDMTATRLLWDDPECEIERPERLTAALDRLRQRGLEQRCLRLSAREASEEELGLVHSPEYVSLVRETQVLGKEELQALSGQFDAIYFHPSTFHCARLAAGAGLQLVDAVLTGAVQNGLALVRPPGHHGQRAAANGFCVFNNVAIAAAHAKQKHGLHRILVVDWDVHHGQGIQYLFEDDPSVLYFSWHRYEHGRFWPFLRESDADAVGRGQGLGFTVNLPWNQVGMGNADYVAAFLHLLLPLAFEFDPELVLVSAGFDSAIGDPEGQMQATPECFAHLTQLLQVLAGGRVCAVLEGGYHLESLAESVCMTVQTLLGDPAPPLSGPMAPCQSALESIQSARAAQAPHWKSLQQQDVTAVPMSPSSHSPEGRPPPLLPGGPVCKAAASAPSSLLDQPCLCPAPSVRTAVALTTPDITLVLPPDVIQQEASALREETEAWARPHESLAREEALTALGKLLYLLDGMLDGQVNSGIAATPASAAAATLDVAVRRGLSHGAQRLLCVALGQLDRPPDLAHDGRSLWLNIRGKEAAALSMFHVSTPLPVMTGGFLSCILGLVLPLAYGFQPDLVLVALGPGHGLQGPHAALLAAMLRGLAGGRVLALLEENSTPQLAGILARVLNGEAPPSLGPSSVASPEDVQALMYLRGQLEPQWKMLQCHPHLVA
Assay: Inhibition of HDAC10 (unknown origin)
Assay readout: IC50 (nM)
Provide only the numeric value, understood in nM.

Prompt: Can you share its IC50? I mean this compound: `CN1c2ccccc2C(=O)N2[C@H](C(=O)Nc3ccc(C(=O)Nc4ccccc4N)cc3)Cc3c([nH]c4ccccc34)[C@@H]12`
Response: 5.5

---

Overview of recorded IC50 for various molecules
target: Protein deacetylase HDAC6 (Homo sapiens, UniProt Q9UBN7); experiment: Inhibition of HDAC6 (unknown origin) using acetylated-peptide substrate by fluorometric assay

{"columns": ["Record smiles", "Assay system", "Assay result"],
 "data": [
  ["COc1ccc(-c2ccc3ccc(OCCCCCCC(=O)NO)cc3n2)cc1I", "Protein deacetylase HDAC6 (Homo sapiens, UniProt Q9UBN7)", "137 nM"],
  ["O=C(CCCCCCOc1ccc(-c2ccc3ccccc3n2)cc1)NO", "Protein deacetylase HDAC6 (Homo sapiens, UniProt Q9UBN7)", "276 nM"],
  ["COc1cc(-c2ccc3cc(OCCCCCCC(=O)NO)ccc3n2)cc(OC)c1OC", "Protein deacetylase HDAC6 (Homo sapiens, UniProt Q9UBN7)", "243 nM"]
]}

Prompt: Can you share its IC50? I mean this molecule: `COc1ccc(-c2ccc3cc(OCCCCCC(=O)NO)ccc3n2)cc1`
Response: 22.9 nM

Prompt: Can you share its IC50? I mean this molecule: `O=C(CCCCCCOc1ccc2nc(-c3ccccc3)ccc2c1)NO`
Response: > 500 nM

Prompt: Can you share its IC50? I mean this molecule: `COc1cc(-c2ccc3cc(OCCCCCC(=O)NO)ccc3n2)cc(OC)c1OC`
Response: > 500 nM

Prompt: Can you share its IC50? I mean this molecule: `COc1ccc(-c2ccc3ccc(OCCCCCC(=O)NO)cc3n2)cc1I`
Response: 47.8 nM

Prompt: Can you share its IC50? I mean this molecule: `COc1ccc(-c2ccc3cc(OCCCCCCC(=O)NO)ccc3n2)cc1`
Response: > 500 nM
